- assay_protocol: Stability in human liver microsomes assessed as compound remaining after 30 mins
- Format: ADME, microsome
- test_conditions: read-out: Stability

>  <smiles_structure>
CC1=CC(=O)N(Nc2nc(-c3ccc[nH]3)nc3sc(C)c(C)c23)C1=O

>  <u>
%

>  <remaining at 0.5 h>
37.1

$$$$
>  <smiles_structure>
CC1=CC(=O)N(Nc2nc(-c3ccc(F)cc3)nc3sc(C)cc23)C1=O

>  <u>
%

>  <remaining at 0.5 h>
42.6

$$$$
>  <smiles_structure>
CC1=CC(=O)N(Nc2nc(-c3nccs3)nc3sc(C)cc23)C1=O

>  <u>
%

>  <remaining at 0.5 h>
27.5

$$$$
>  <smiles_structure>
CC1=CC(=O)N(Nc2nc(-c3cccs3)nc3sc(C)c(C)c23)C1=O

>  <u>
%

>  <remaining at 0.5 h>
32.4

$$$$
>  <smiles_structure>
CC1=CC(=O)N(Nc2nc(-c3ccco3)nc3sc(C)cc23)C1=O

>  <u>
%

>  <remaining at 0.5 h>
35.1

$$$$

###

Recorded IC50 for the following compounds
- assay_target: Receptor-type tyrosine-protein kinase FLT3 (Homo sapiens)
- Sequence (P36888 whole entry): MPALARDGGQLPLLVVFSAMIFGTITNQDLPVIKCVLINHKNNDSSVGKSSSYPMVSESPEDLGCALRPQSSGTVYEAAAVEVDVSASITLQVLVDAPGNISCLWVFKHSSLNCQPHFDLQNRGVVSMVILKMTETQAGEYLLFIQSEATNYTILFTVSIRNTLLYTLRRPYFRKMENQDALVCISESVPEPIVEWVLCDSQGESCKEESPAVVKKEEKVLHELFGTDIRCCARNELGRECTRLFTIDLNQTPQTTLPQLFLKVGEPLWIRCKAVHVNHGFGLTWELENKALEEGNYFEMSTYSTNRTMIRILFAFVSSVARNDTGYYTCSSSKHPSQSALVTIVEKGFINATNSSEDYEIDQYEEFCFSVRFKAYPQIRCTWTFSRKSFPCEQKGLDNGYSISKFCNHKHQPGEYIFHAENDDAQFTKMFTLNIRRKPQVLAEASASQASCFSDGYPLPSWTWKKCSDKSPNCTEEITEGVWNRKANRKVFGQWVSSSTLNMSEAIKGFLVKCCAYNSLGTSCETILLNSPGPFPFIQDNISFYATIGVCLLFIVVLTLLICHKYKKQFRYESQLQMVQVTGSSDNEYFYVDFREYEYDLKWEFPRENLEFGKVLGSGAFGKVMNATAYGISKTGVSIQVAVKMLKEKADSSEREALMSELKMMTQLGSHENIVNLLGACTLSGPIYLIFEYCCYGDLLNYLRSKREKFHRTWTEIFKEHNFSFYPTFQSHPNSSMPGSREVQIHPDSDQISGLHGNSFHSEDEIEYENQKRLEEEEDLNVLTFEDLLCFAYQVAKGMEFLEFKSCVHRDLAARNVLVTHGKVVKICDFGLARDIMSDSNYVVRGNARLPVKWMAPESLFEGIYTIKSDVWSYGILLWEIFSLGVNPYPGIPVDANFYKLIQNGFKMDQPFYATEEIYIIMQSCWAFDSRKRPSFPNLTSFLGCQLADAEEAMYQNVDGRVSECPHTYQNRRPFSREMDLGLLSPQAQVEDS
- assay_protocol: biochemical
- Description: Inhibition of N-terminal GST-tagged recombinant human wild-type FLT3 (564 to end residues) expressed in baculovirus infected sf21 cells using Abltide as substrate in presence of [gamma33P]ATP after 10 mins by scintillation counting method
quantity_measured: IC50 (nM)

>  <smiles_structure>
CNCCOc1ccc(-c2sc3nc(-c4cccs4)nc(NN4C(=O)C=C(C)C4=O)c3c2C)cc1

>  <assay_target>
Receptor-type tyrosine-protein kinase FLT3 (Homo sapiens)

>  <u>
nM

>  <value_observed>
11.1

$$$$
>  <smiles_structure>
CC1=CC(=O)N(Nc2nc(-c3ccco3)nc3sc(C)c(C)c23)C1=O

>  <assay_target>
Receptor-type tyrosine-protein kinase FLT3 (Homo sapiens)

>  <u>
nM

>  <value_observed>
100

$$$$
>  <smiles_structure>
CC1=CC(=O)N(Nc2nc(-c3ccc(F)cc3)nc3sc(C)c(C)c23)C1=O

>  <assay_target>
Receptor-type tyrosine-protein kinase FLT3 (Homo sapiens)

>  <u>
nM

>  <value_observed>
211

$$$$
>  <smiles_structure>
CC1=CC(=O)N(Nc2nc(-c3ccc(F)cc3)nc3sc(C)cc23)C1=O

>  <assay_target>
Receptor-type tyrosine-protein kinase FLT3 (Homo sapiens)

>  <u>
nM

>  <value_observed>
274

$$$$
>  <smiles_structure>
CC1=CC(=O)N(Nc2nc(-c3ccco3)nc3sc(C)cc23)C1=O

>  <assay_target>
Receptor-type tyrosine-protein kinase FLT3 (Homo sapiens)

>  <u>
nM

>  <value_observed>
171

$$$$
>  <smiles_structure>
CC1=CC(=O)N(Nc2nc(-c3nccs3)nc3sc(C)cc23)C1=O

>  <assay_target>
Receptor-type tyrosine-protein kinase FLT3 (Homo sapiens)

>  <u>
nM

>  <value_observed>
33.4

$$$$
>  <smiles_structure>
CC1=CC(=O)N(Nc2nc(-c3ccc[nH]3)nc3sc(C)c(C)c23)C1=O

>  <assay_target>
Receptor-type tyrosine-protein kinase FLT3 (Homo sapiens)

>  <u>
nM

>  <value_observed>
79.3

$$$$
>  <smiles_structure>
CC1=CC(=O)N(Nc2nc(-c3nccs3)nc3sc(C)c(C)c23)C1=O

>  <assay_target>
Receptor-type tyrosine-protein kinase FLT3 (Homo sapiens)

>  <u>
nM

>  <value_observed>
16

$$$$
>  <smiles_structure>
CC1=CC(=O)N(Nc2nc(-c3ccc[nH]3)nc3sc(C)cc23)C1=O

>  <assay_target>
Receptor-type tyrosine-protein kinase FLT3 (Homo sapiens)

>  <u>
nM

>  <value_observed>
135

$$$$

###

- assay_protocol: Solubility of the compound in phosphate buffered saline kept in shaker for 1 hr
- Assay type: physicochemical

>  <smiles_structure>
CC1=CC(=O)N(Nc2nc(-c3ccc[nH]3)nc3sc(C)cc23)C1=O

>  <relation>
=

>  <solubility at 1 h, µM>
0.59

$$$$
>  <smiles_structure>
CC1=CC(=O)N(Nc2nc(-c3nccs3)nc3sc(C)cc23)C1=O

>  <relation>
=

>  <solubility at 1 h, µM>
2.8

$$$$
>  <smiles_structure>
CC1=CC(=O)N(Nc2nc(-c3ccc(F)cc3)nc3sc(C)cc23)C1=O

>  <relation>
<

>  <solubility at 1 h, µM>
0.14

$$$$
>  <smiles_structure>
CC1=CC(=O)N(Nc2nc(-c3cccs3)nc3sc(C)c(C)c23)C1=O

>  <relation>
=

>  <solubility at 1 h, µM>
1.04

$$$$
>  <smiles_structure>
CC1=CC(=O)N(Nc2nc(-c3ccc[nH]3)nc3sc(C)c(C)c23)C1=O

>  <relation>
=

>  <solubility at 1 h, µM>
0.16

$$$$
>  <smiles_structure>
CC1=CC(=O)N(Nc2nc(-c3cccs3)nc3sc(C)cc23)C1=O

>  <relation>
=

>  <solubility at 1 h, µM>
0.36

$$$$
>  <smiles_structure>
CC1=CC(=O)N(Nc2nc(-c3ccc(F)cc3)nc3sc(C)c(C)c23)C1=O

>  <relation>
<

>  <solubility at 1 h, µM>
0.14

$$$$
>  <smiles_structure>
CC1=CC(=O)N(Nc2nc(-c3ccco3)nc3sc(C)c(C)c23)C1=O

>  <relation>
=

>  <solubility at 1 h, µM>
12.4

$$$$
>  <smiles_structure>
CC1=CC(=O)N(Nc2nc(-c3nccs3)nc3sc(C)c(C)c23)C1=O

>  <relation>
=

>  <solubility at 1 h, µM>
36.8

$$$$
>  <smiles_structure>
CC1=CC(=O)N(Nc2nc(-c3ccco3)nc3sc(C)cc23)C1=O

>  <relation>
=

>  <solubility at 1 h, µM>
28.5

$$$$

###

- assay_protocol: Stability in human liver microsomes assessed as compound remaining after 30 mins
- Assay type: ADME, microsome
- test_conditions: read-out: Stability
# strict inequality: remaining at 0.5 h < 40% yields Yes, everything else yields No

>  <smiles_structure>
CC1=CC(=O)N(Nc2nc(-c3ccc(F)cc3)nc3sc(C)c(C)c23)C1=O

>  <label_value>
Yes

$$$$
>  <smiles_structure>
CC1=CC(=O)N(Nc2nc(-c3ccco3)nc3sc(C)c(C)c23)C1=O

>  <label_value>
Yes

$$$$
>  <smiles_structure>
CC1=CC(=O)N(Nc2nc(-c3nccs3)nc3sc(C)c(C)c23)C1=O

>  <label_value>
No

$$$$
>  <smiles_structure>
CC1=CC(=O)N(Nc2nc(-c3cccs3)nc3sc(C)cc23)C1=O

>  <label_value>
No

$$$$

###

- assay_protocol: Stability in rat liver microsomes assessed as compound remaining after 30 mins
- Assay type: ADME, microsome
- test_conditions: read-out: Stability
Recorded remaining at 0.5 h for the following molecules

>  <smiles_structure>
CC1=CC(=O)N(Nc2nc(-c3ccco3)nc3sc(C)c(C)c23)C1=O

>  <u>
%

>  <remaining at 0.5 h>
26.2

$$$$
>  <smiles_structure>
CC1=CC(=O)N(Nc2nc(-c3ccc[nH]3)nc3sc(C)cc23)C1=O

>  <u>
%

>  <remaining at 0.5 h>
39.1

$$$$
>  <smiles_structure>
CC1=CC(=O)N(Nc2nc(-c3ccco3)nc3sc(C)cc23)C1=O

>  <u>
%

>  <remaining at 0.5 h>
34.8

$$$$
>  <smiles_structure>
CC1=CC(=O)N(Nc2nc(-c3ccc[nH]3)nc3sc(C)c(C)c23)C1=O

>  <u>
%

>  <remaining at 0.5 h>
39.7

$$$$
>  <smiles_structure>
CC1=CC(=O)N(Nc2nc(-c3ccc(F)cc3)nc3sc(C)c(C)c23)C1=O

>  <u>
%

>  <remaining at 0.5 h>
19.6

$$$$
>  <smiles_structure>
CC1=CC(=O)N(Nc2nc(-c3nccs3)nc3sc(C)cc23)C1=O

>  <u>
%

>  <remaining at 0.5 h>
14.5

$$$$
>  <smiles_structure>
CC1=CC(=O)N(Nc2nc(-c3ccc(F)cc3)nc3sc(C)cc23)C1=O

>  <u>
%

>  <remaining at 0.5 h>
8.58

$$$$
>  <smiles_structure>
CC1=CC(=O)N(Nc2nc(-c3cccs3)nc3sc(C)cc23)C1=O

>  <u>
%

>  <remaining at 0.5 h>
32.6

$$$$
>  <smiles_structure>
CC1=CC(=O)N(Nc2nc(-c3nccs3)nc3sc(C)c(C)c23)C1=O

>  <u>
%

>  <remaining at 0.5 h>
17.7

$$$$
>  <smiles_structure>
CC1=CC(=O)N(Nc2nc(-c3cccs3)nc3sc(C)c(C)c23)C1=O

>  <u>
%

>  <remaining at 0.5 h>
22.7

$$$$

###

- assay_protocol: Solubility of the compound in distilled water kept in shaker for 1 hr
- Type: physicochemical
Recorded log10 solubility at 1 h for the following compounds
quantity_measured: log10 solubility at 1 h (log10 of the value in µM)

>  <smiles_structure>
CC1=CC(=O)N(Nc2nc(-c3ccc[nH]3)nc3sc(C)c(C)c23)C1=O

>  <value_observed>
-0.06

$$$$
>  <smiles_structure>
CC1=CC(=O)N(Nc2nc(-c3ccc[nH]3)nc3sc(C)cc23)C1=O

>  <value_observed>
1.00

$$$$
>  <smiles_structure>
CC1=CC(=O)N(Nc2nc(-c3ccco3)nc3sc(C)cc23)C1=O

>  <value_observed>
1.61

$$$$
>  <smiles_structure>
CC1=CC(=O)N(Nc2nc(-c3cccs3)nc3sc(C)c(C)c23)C1=O

>  <value_observed>
0.11

$$$$
>  <smiles_structure>
CC1=CC(=O)N(Nc2nc(-c3nccs3)nc3sc(C)cc23)C1=O

>  <value_observed>
0.16

$$$$
>  <smiles_structure>
CC1=CC(=O)N(Nc2nc(-c3ccco3)nc3sc(C)c(C)c23)C1=O

>  <value_observed>
1.39

$$$$
>  <smiles_structure>
CC1=CC(=O)N(Nc2nc(-c3nccs3)nc3sc(C)c(C)c23)C1=O

>  <value_observed>
1.40

$$$$
>  <smiles_structure>
CC1=CC(=O)N(Nc2nc(-c3cccs3)nc3sc(C)cc23)C1=O

>  <value_observed>
0.77

$$$$
